Just for reference, paper PMC6736568 is where these values come from.

test system: HCT-8 host cells (Hs18S); details: human, 41 h, 10 μM
measurement name: Hs18S ΔCT
Give your answer as a number; write no unit.

The examples below pair each entry with its known result.
Asked: Which Hs18S ΔCT reading was recorded for the compound `O=c1c2cc(O)c(O)cc2oc2cc(O)c([C@@H]3O[C@H](CO)[C@@H](O)[C@H](O)[C@H]3O)c(O)c12` ?
Given back: 0.18

Asked: Data request, read-out Hs18S ΔCT, for NC(C(=O)O)C(O)C(=O)O (stereo not drawn) [d,l-threo-3-HYDROXYASPARTIC ACID]
Given back: 0.16

Asked: Dear colleague, I am looking for the recorded Hs18S ΔCT of the following compound: `COC(=O)/C=C/C(C)=C\C=C\C(C)=C\C=C\C=C(C)\C=C\C=C(C)\C=C\C(=O)O`
Given back: 0.60

Let us examine a further case.
Asked: Param item = COC1(C)CCC2OC2(C)CCC2C1CC2(C)C (centres unmarked) ; retrieve measured Hs18S ΔCT.
Given back: -0.15

---

test: in vitro; conditions: human
measurement name: cytotoxicity at 41 h, 10 µM (%)
# unit: % | format: bare number

Here's what some known entries look like.
Asked: Recorded cytotoxicity at 41 h, 10 µM of O=C1C=C2CC3(O)COc4c(ccc(O)c4O)C3=C2C=C1O (stereo not drawn) , please.
Given back: 8.6

Asked: Would you kindly share the measured cytotoxicity at 41 h, 10 µM for O=c1c(O)c(-c2ccccc2)oc2ccccc12 [3-HYDROXYFLAVONE] ?
Given back: -2.7

Next:
Asked: GET /values?readout=cytotoxicity at 41 h, 10 µM&item= `NCCCC(=O)O`
Given back: 2.6

Asked: Which cytotoxicity at 41 h, 10 µM is listed for O=C1C=C2CC3(O)COc4cc(O)ccc4C3=C2C=C1O (stereo not drawn) ?
Given back: 2.2

Asked: Report cytotoxicity at 41 h, 10 µM for C=CC(C1=CC(=O)C=CC1=O)c1ccccc1 (stereo not drawn) please.
Given back: 20.4

Asked: Need cytotoxicity at 41 h, 10 µM of COc1cc(C2Oc3cc([C@H]4Oc5cc(O)cc(O)c5C(=O)[C@@H]4O)ccc3OC2CO)ccc1O (stereo partly drawn) , thanks.
Given back: -1.4

Asked: Please give the measured cytotoxicity at 41 h, 10 µM for this compound: `OC[C@@H](O)[C@@H](O)[C@H](O)[C@@H](O)CO`
Given back: -13.2

Asked: Fill in the blank: the reported cytotoxicity at 41 h, 10 µM of `C=CC1=C(C)/C(=C/c2[nH]c(Cc3[nH]c(/C=C4\NC(=O)C(C)=C4C=C)c(C)c3CCC(=O)O)c(CCC(=O)O)c2C)NC1=O` is ____.
Given back: -0.9

Asked: Entry under review: `CC(C)=CCc1c(O)cc2oc(C)cc(=O)c2c1O` . Reported cytotoxicity at 41 h, 10 µM?
Given back: -31.3

---

test system: HCT-8 host cells (Hs18S); settings: primary screening at 10 uM, treated vs control
Where a name gives a salt, the structure may show the parent alone.
// thresholds for Hs18S ΔCT classes: group 1 = under -0.2, group 2 = from -0.2 up to 0.2, group 3 = 0.2 and over

Example results:
Asked: Which class holds `COc1cc(O)c(C(=O)/C=C/c2ccc(OC)c(O)c2)c(OC)c1` ?
Given back: group 1

Asked: Bin this entry: C[C@@H](CO)NC(=O)[C@@H]1C=C2c3cccc4[nH]cc(c34)C[C@H]2N(C)C1 [ERGONOVINE MALEATE]
Given back: group 3

Asked: Assign a category based on measured Hs18S ΔCT for `C=C1CC[C@H](O)C/C1=C/C=C1\CCC[C@]2(C)[C@@H]([C@H](C)CCCC(C)C)CC[C@@H]12` and give only the class name.
Given back: group 1

Further cases:
Asked: Which category fits this record: CN[C@@H]1[C@H](O)[C@H](NC)[C@H]2O[C@@]3(O)C(=O)C[C@@H](C)O[C@H]3O[C@@H]2[C@H]1O.Cl [SPECTINOMYCIN HYDROCHLORIDE]
Given back: group 1

Asked: Any idea which band CC(C)c1c(O)c(-c2cc3c(c(C(C)C)c2O)CCC2C(C)(C)CCC[C@]32C)cc2c1CCC1C(C)(C)CCC[C@]21C (some centres unmarked) is in?
Given back: group 2
